src = paper PMC9344054

- EXPERIMENTAL_PROTOCOL: Pharmacokinetic study of PGI alone and after repeated GAO in rats
- Type: in vivo, rat
- CONDITION_LABEL: male, SD, rat, plasma, iv, 9 mg/kg, Control group: PGI 9 mg kg−1 tail vein, rats, n = 8
MEASURED_PROPERTY: AUC(0-t) (ng·h/mL)

>>> df
                                   compound  quantitative_readout
0  OC[C@H]1O[C@@H](Oc2cc(/C=C/c3cc(O)cc(O)c3)ccc2O)[C@H](O)[C@@H](O)[C@@H]1O [PG, Piceatannol-3′-O-β-D-glucopyranoside]                  3310
